Source listed as patent US10414774B2.

Biological target: Human CYP8B1 (Homo sapiens)
Assay: Human CYP8B1 Liver Microsome Assay
Conditions: Human CYP8B1 IC50, human liver microsomes; substrate 7a-hydroxy-4-cholesten-3-one, NADPH; RapidFire MS detection of 7α,12α-dihydroxy-4-cholesten-3-one
observable: IC50 (nM)

Worked set:
{"compound": "C[C@@H]1CN(c2c(C#N)cnc3cc(C(F)(F)F)ccc23)CC[C@@H]1C(=O)N1CCn2c(nnc2C(F)(F)F)C1 [Example 16]", "unitInfo": "nM", "observed": 0.38}
{"compound": "CC[C@H]1CN(c2c(C#N)cnc3c(F)c(OC)ccc23)CC[C@H]1C(=O)N1CCn2c(nnc2C(F)(F)F)C1 [Example 74a]", "unitInfo": "nM", "observed": 343}
{"compound": "N#Cc1cnc2ccc(Cl)cc2c1N1CCC(C(=O)N2CCn3cnnc3C2)CC1", "unitInfo": "nM", "observed": 181}

a. CC1CN(c2c(C#N)cnc3ccc(Cl)cc23)CCC1C(=O)N1CCn2c(nnc2C(F)(F)F)C1 (centres unmarked)
b. C[C@@H]1CN(c2c(C#N)cnc3cc(OC4CC4)ccc23)CC[C@@H]1C(=O)N1CCn2c(nnc2C(F)(F)F)C1
// compare measured IC50 between a and b ; output the lower one The response must carry the label of the picked entry.
b

====

Target: Human CYP8B1 (Homo sapiens, UniProt Q9UNU6)
Sequence (Q9UNU6 1-501): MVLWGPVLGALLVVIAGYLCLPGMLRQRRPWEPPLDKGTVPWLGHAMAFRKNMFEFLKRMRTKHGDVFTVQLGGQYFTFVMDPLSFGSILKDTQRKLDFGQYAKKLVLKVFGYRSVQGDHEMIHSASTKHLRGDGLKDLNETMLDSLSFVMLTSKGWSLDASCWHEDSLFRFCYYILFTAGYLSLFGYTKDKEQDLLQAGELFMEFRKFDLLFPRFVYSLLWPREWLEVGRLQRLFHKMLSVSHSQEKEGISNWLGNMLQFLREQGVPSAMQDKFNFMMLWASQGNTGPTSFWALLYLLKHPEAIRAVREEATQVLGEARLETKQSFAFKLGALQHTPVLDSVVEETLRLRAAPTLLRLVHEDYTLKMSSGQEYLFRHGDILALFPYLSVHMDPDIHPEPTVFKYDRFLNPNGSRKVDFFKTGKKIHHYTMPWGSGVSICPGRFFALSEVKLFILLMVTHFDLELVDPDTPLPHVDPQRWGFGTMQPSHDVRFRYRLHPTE
Assay: Human CYP8B1 Liver Microsome Assay
Details: Human CYP8B1 IC50, human liver microsomes; substrate 7a-hydroxy-4-cholesten-3-one, NADPH; RapidFire MS detection of 7α,12α-dihydroxy-4-cholesten-3-one
observable: IC50 (nM)

Worked set:
{"compound": "C[C@@H]1CN(c2c(C#N)cnc3cnc(F)cc23)CC[C@@H]1C(=O)N1CCn2c(nnc2C(F)(F)F)C1 [Example 31]", "IC50 [nM]": 2.6}
{"compound": "C[C@@H]1CN(c2c(C#N)cnc3c(F)cc(C4CC4)cc23)CC[C@@H]1C(=O)N1CCn2c(nnc2C(F)(F)F)C1 [Example 86]", "IC50 [nM]": 0.4}
{"compound": "C[C@@H]1CN(c2c(C#N)cnc3nc(C(F)(F)F)ccc23)CC[C@@H]1C(=O)N1CCn2c(nnc2C(F)(F)F)C1 [Example 21]", "IC50 [nM]": 4.81}

I. N#Cc1cnc2ccc(Cl)cc2c1N1CCC(C(=O)N2CCc3c(C4CC4)n[nH]c3C2)CC1 [Example 107]
II. C[C@@H]1CN(c2c(C#N)cnc3cc(C4CC4)ccc23)CC[C@@H]1C(=O)N1CCn2c(nnc2C(F)(F)F)C1 [Example 63]
III. CC[C@H]1CN(c2c(C#N)cnc3ccc(Cl)cc23)CC[C@H]1C(=O)N1CCn2c(nnc2C(F)(F)F)C1 [Example 75a]
IV. C[C@@H]1CN(c2c(C#N)cnc3ncc(Br)cc23)CC[C@@H]1C(=O)N1CCn2c(nnc2C(F)(F)F)C1 [Example 30]
Rank order required: IC50, descending. # answer = labels listed in requested order
III, IV, I, II
